Tested on: johnsongrass (Sorghum halepense)
Assay: Test C pre/postemergence
Assay type: in vivo
Details: Sorghum halepense, post-emergence, Postemergence, 250 g ai/ha; scale 0 to 100; read-out: Plant response rating, Johnsongrass
Text: […]
Kindly supply the reported pest or weed control at 250 g/ha values for the records listed here.
One number for each entry, in %.

{"chemical.structure": "CCOC(=O)c1nc(-c2ccc(Cl)cc2)nc(N)c1Cl", "test.value": 85}
{"chemical.structure": "Nc1nc(C2CC2)nc(C(=O)OCc2ccccc2)c1Cl", "test.value": 40}
{"chemical.structure": "Nc1nc(C2CC2)nc(C(=O)O)c1Br", "test.value": 45}
{"chemical.structure": "CCOC(=O)c1nc(C2CC2)nc(N)c1F", "test.value": 40}

Could you now look at the following compound, please?
## Input Assign pest or weed control at 250 g/ha to the following record: COC(=O)c1nc(C2CC2)nc(N)c1Br
## Output 60

Data origin: patent US8802597B2
